A collection of variants and their measured protein stability index
B1: TOR1AIP2 (parent)
chain: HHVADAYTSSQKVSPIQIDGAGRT

variants of: B1; experiment: protein stability index of a GFP-peptide fusion (GPS, HEK-293T) (PSI 1-6); higher = more stable; conditions: c terminus: a fixed tail appended;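 note: lentivirally expressed fusions sorted by FACS into six bins by GFP to DsRed ratio, PSI derived from sequencing read proportions per bin multiplied by bin number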
Keep the answer to the number alone.

Sample answers from the record:
> print(dat)
                    query.sequence  observed.measurement
1  HHVADAYTSSQKVSPIGIDGAGRT [Q17G]                  3.29
2  HHVADAYTSSQKVSPIQHDGAGRT [I18H]                  3.85
3   HHVADAYTVSQKVSPIQIDGAGRT [S9V]                  1.62
4  HHVADAYTSSQKVSPIAIDGAGRT [Q17A]                  3.55
5  HHVADAYTSSQKVSPIQIDLAGRT [G20L]                  2.78

What value of protein stability index has been recorded for this entry: HHVADAYPSSQKVSPIQIDGAGRT [T8P]
4.38

What value of protein stability index has been recorded for this entry: HHVADAYTWSQKVSPIQIDGAGRT [S9W]
2.65

What value of protein stability index has been recorded for this entry: HHVADAYTSSQKVSHIQIDGAGRT [P15H]
3.08

What value of protein stability index has been recorded for this entry: HHVADAYTSSQKNSPIQIDGAGRT [V13N]
4.32

What value of protein stability index has been recorded for this entry: HHVADAYTSSQKVSWIQIDGAGRT [P15W]
2.63

What value of protein stability index has been recorded for this entry: HHMADAYTSSQKVSPIQIDGAGRT [V3M]
2.92

What value of protein stability index has been recorded for this entry: HHVADAYTSSQKVSPIQIDQAGRT [G20Q]
3.7

What value of protein stability index has been recorded for this entry: HHVADAYTSSQKGSPIQIDGAGRT [V13G]
3.7

What value of protein stability index has been recorded for this entry: HVVADAYTSSQKVSPIQIDGAGRT [H2V]
1.99

What value of protein stability index has been recorded for this entry: HHVADAYTSSAKVSPIQIDGAGRT [Q11A]
3.23
